- Test system: KRAS PDC multicell spheroid viability;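 also: drug exposure lasted seven days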
- test: Anticancer human tumor 521955-158-R6-J3-PDC patient-derived pancreatic carcinoma cell line growth inhibition [KRAS2]
- condition-details: second compound 3.16 µM; first compound 0.1 µM; active compounds read low
Hi! Just check whether viability, T/C is below 80%. Below gives condition met, equal or above gives condition not met.

Cn1nccc1Nc1nccc(-c2cc3c(s2)C(C)(C)N(CCN2CCOCC2)C3=O)n1 + COc1cc2nc(C)nc(NC(C)c3cc(N)cc(C(F)(F)F)c3)c2cc1OC1CCOC1    condition not met
COc1cc(Nc2ncc3c(n2)-c2ccc(Cl)cc2C(c2c(F)cccc2OC)=NC3)ccc1C(=O)O + COc1cc2nc(C)nc(NC(C)c3cc(N)cc(C(F)(F)F)c3)c2cc1OC1CCOC1    condition met
CC(C)NCC(C(=O)N1CCN(c2ncnc3c2C(C)CC3O)CC1)c1ccc(Cl)cc1 (stereo unspecified) + C=CC(=O)N1CCN(c2nc(OCC3CCCN3C)nc3c2CCN(c2cccc4cccc(C)c24)C3)CC1CC#N    condition met
COC(=O)c1ccc2c(C(=Nc3ccc(N(C)C(=O)CN4CCN(C)CC4)cc3)c3ccccc3)c(O)[nH]c2c1 + COc1cc2nc(C)nc(NC(C)c3cc(N)cc(C(F)(F)F)c3)c2cc1OC1CCOC1    condition met

Continue with the next molecule.
stdin: In the record for CC(C)n1nc(-c2ccc3oc(N)nc3c2)c2c(N)ncnc21 + CC1OCC2(CCN(c3cnc(Sc4ccnc(N)c4Cl)c(N)n3)CC2)C1N , is viability, T/C less than 80%?
stdout: condition met
